CONDITION_NOTES: in isopropanol, 308.15 K
REPORTED_ENDPOINT: solubility (mole fraction)
One number for each entry.

Task item: Looking for the measured solubility (mole fraction) of `CC(=O)Nc1ccc(OC(=O)c2ccccc2OC(C)=O)cc1` , can you help?
Reply: 0.000833

====

CONDITION_NOTES: in isopropanol, 318.15 K
REPORTED_ENDPOINT: solubility (mole fraction)
Give bare numbers.

Task item: Looking for the measured solubility (mole fraction) of `CC(=O)Nc1ccc(OC(=O)c2ccccc2OC(C)=O)cc1` , can you help?
Reply: 0.00137

====

CONDITION_NOTES: in acetone, 298.15 K
REPORTED_ENDPOINT: solubility (mole fraction)
Answers are plain numbers.

Task item: Looking for the measured solubility (mole fraction) of `CC(=O)Nc1ccc(OC(=O)c2ccccc2OC(C)=O)cc1` , can you help?
Reply: 0.0052

====

CONDITION_NOTES: in isopropyl acetate, 288.15 K
REPORTED_ENDPOINT: solubility (mole fraction)
Answers are plain numbers.

Task item: Looking for the measured solubility (mole fraction) of `CC(=O)Nc1ccc(OC(=O)c2ccccc2OC(C)=O)cc1` , can you help?
Reply: 0.00056

====

CONDITION_NOTES: in isopropyl acetate, 293.15 K
REPORTED_ENDPOINT: solubility (mole fraction)
Give bare numbers.

Task item: Looking for the measured solubility (mole fraction) of `CC(=O)Nc1ccc(OC(=O)c2ccccc2OC(C)=O)cc1` , can you help?
Reply: 0.000886

====

CONDITION_NOTES: in isobutanol, 283.15 K
REPORTED_ENDPOINT: solubility (mole fraction)
Numbers only.

Task item: Looking for the measured solubility (mole fraction) of `CC(=O)Nc1ccc(OC(=O)c2ccccc2OC(C)=O)cc1` , can you help?
Reply: 0.000272

====

CONDITION_NOTES: in acetonitrile, 288.15 K
REPORTED_ENDPOINT: solubility (mole fraction)
Answers are plain numbers.

Task item: Looking for the measured solubility (mole fraction) of `CC(=O)Nc1ccc(OC(=O)c2ccccc2OC(C)=O)cc1` , can you help?
Reply: 0.00192

====

CONDITION_NOTES: in ethyl formate, 318.15 K
REPORTED_ENDPOINT: solubility (mole fraction)
Numbers only.

Task item: Looking for the measured solubility (mole fraction) of `CC(=O)Nc1ccc(OC(=O)c2ccccc2OC(C)=O)cc1` , can you help?
Reply: 0.00449

====

CONDITION_NOTES: in ethyl acetate, 278.15 K
REPORTED_ENDPOINT: solubility (mole fraction)
One number for each entry.

Task item: Looking for the measured solubility (mole fraction) of `CC(=O)Nc1ccc(OC(=O)c2ccccc2OC(C)=O)cc1` , can you help?
Reply: 0.000904

====

CONDITION_NOTES: in acetonitrile, 278.15 K
REPORTED_ENDPOINT: solubility (mole fraction)
Answers are plain numbers.

Task item: Looking for the measured solubility (mole fraction) of `CC(=O)Nc1ccc(OC(=O)c2ccccc2OC(C)=O)cc1` , can you help?
Reply: 0.00129

====

CONDITION_NOTES: in isobutanol, 303.15 K
REPORTED_ENDPOINT: solubility (mole fraction)
One number for each entry.

Task item: Looking for the measured solubility (mole fraction) of `CC(=O)Nc1ccc(OC(=O)c2ccccc2OC(C)=O)cc1` , can you help?
Reply: 0.000739

====

CONDITION_NOTES: in isopropanol, 293.15 K
REPORTED_ENDPOINT: solubility (mole fraction)
Answers are plain numbers.

Task item: Looking for the measured solubility (mole fraction) of `CC(=O)Nc1ccc(OC(=O)c2ccccc2OC(C)=O)cc1` , can you help?
Reply: 0.000314

====

CONDITION_NOTES: in isopropyl acetate, 278.15 K
REPORTED_ENDPOINT: solubility (mole fraction)
Give bare numbers.

Task item: Looking for the measured solubility (mole fraction) of `CC(=O)Nc1ccc(OC(=O)c2ccccc2OC(C)=O)cc1` , can you help?
Reply: 0.000329

====

CONDITION_NOTES: in isopropanol, 313.15 K
REPORTED_ENDPOINT: solubility (mole fraction)
Answers are plain numbers.

Task item: Looking for the measured solubility (mole fraction) of `CC(=O)Nc1ccc(OC(=O)c2ccccc2OC(C)=O)cc1` , can you help?
Reply: 0.00106

====

CONDITION_NOTES: in methanol, 283.15 K
REPORTED_ENDPOINT: solubility (mole fraction)
Numbers only.

Task item: Looking for the measured solubility (mole fraction) of `CC(=O)Nc1ccc(OC(=O)c2ccccc2OC(C)=O)cc1` , can you help?
Reply: 0.000575

====

CONDITION_NOTES: in methanol, 293.15 K
REPORTED_ENDPOINT: solubility (mole fraction)
Numbers only.

Task item: Looking for the measured solubility (mole fraction) of `CC(=O)Nc1ccc(OC(=O)c2ccccc2OC(C)=O)cc1` , can you help?
Reply: 0.000908

====

CONDITION_NOTES: in methyl acetate, 283.15 K
REPORTED_ENDPOINT: solubility (mole fraction)
Give bare numbers.

Task item: Looking for the measured solubility (mole fraction) of `CC(=O)Nc1ccc(OC(=O)c2ccccc2OC(C)=O)cc1` , can you help?
Reply: 0.00121

====

CONDITION_NOTES: in n-propanol, 303.15 K
REPORTED_ENDPOINT: solubility (mole fraction)

Task item: Looking for the measured solubility (mole fraction) of `CC(=O)Nc1ccc(OC(=O)c2ccccc2OC(C)=O)cc1` , can you help?
Reply: 0.000994

====

CONDITION_NOTES: in ethyl formate, 303.15 K
REPORTED_ENDPOINT: solubility (mole fraction)
One number for each entry.

Task item: Looking for the measured solubility (mole fraction) of `CC(=O)Nc1ccc(OC(=O)c2ccccc2OC(C)=O)cc1` , can you help?
Reply: 0.00227

====

CONDITION_NOTES: in isobutanol, 298.15 K
REPORTED_ENDPOINT: solubility (mole fraction)
Answers are plain numbers.

Task item: Looking for the measured solubility (mole fraction) of `CC(=O)Nc1ccc(OC(=O)c2ccccc2OC(C)=O)cc1` , can you help?
Reply: 0.000587

====

CONDITION_NOTES: in acetone, 278.15 K
REPORTED_ENDPOINT: solubility (mole fraction)
Give bare numbers.

Task item: Looking for the measured solubility (mole fraction) of `CC(=O)Nc1ccc(OC(=O)c2ccccc2OC(C)=O)cc1` , can you help?
Reply: 0.00215

====

CONDITION_NOTES: in ethyl acetate, 303.15 K
REPORTED_ENDPOINT: solubility (mole fraction)
One number for each entry.

Task item: Looking for the measured solubility (mole fraction) of `CC(=O)Nc1ccc(OC(=O)c2ccccc2OC(C)=O)cc1` , can you help?
Reply: 0.00216

====

CONDITION_NOTES: in n-propanol, 278.15 K
REPORTED_ENDPOINT: solubility (mole fraction)
Numbers only.

Task item: Looking for the measured solubility (mole fraction) of `CC(=O)Nc1ccc(OC(=O)c2ccccc2OC(C)=O)cc1` , can you help?
Reply: 0.000181

====

CONDITION_NOTES: in isobutanol, 308.15 K
REPORTED_ENDPOINT: solubility (mole fraction)

Task item: Looking for the measured solubility (mole fraction) of `CC(=O)Nc1ccc(OC(=O)c2ccccc2OC(C)=O)cc1` , can you help?
Reply: 0.00107

====

CONDITION_NOTES: in isopropyl acetate, 298.15 K
REPORTED_ENDPOINT: solubility (mole fraction)

Task item: Looking for the measured solubility (mole fraction) of `CC(=O)Nc1ccc(OC(=O)c2ccccc2OC(C)=O)cc1` , can you help?
Reply: 0.00106

====

CONDITION_NOTES: in ethanol, 283.15 K
REPORTED_ENDPOINT: solubility (mole fraction)
Answers are plain numbers.

Task item: Looking for the measured solubility (mole fraction) of `CC(=O)Nc1ccc(OC(=O)c2ccccc2OC(C)=O)cc1` , can you help?
Reply: 0.000364

====

CONDITION_NOTES: in acetonitrile, 293.15 K
REPORTED_ENDPOINT: solubility (mole fraction)
Numbers only.

Task item: Looking for the measured solubility (mole fraction) of `CC(=O)Nc1ccc(OC(=O)c2ccccc2OC(C)=O)cc1` , can you help?
Reply: 0.00235

====

CONDITION_NOTES: in isopropanol, 283.15 K
REPORTED_ENDPOINT: solubility (mole fraction)
Answers are plain numbers.

Task item: Looking for the measured solubility (mole fraction) of `CC(=O)Nc1ccc(OC(=O)c2ccccc2OC(C)=O)cc1` , can you help?
Reply: 0.000216

====

CONDITION_NOTES: in acetonitrile, 318.15 K
REPORTED_ENDPOINT: solubility (mole fraction)
Numbers only.

Task item: Looking for the measured solubility (mole fraction) of `CC(=O)Nc1ccc(OC(=O)c2ccccc2OC(C)=O)cc1` , can you help?
Reply: 0.00674

====

CONDITION_NOTES: in ethyl acetate, 283.15 K
REPORTED_ENDPOINT: solubility (mole fraction)
Answers are plain numbers.

Task item: Looking for the measured solubility (mole fraction) of `CC(=O)Nc1ccc(OC(=O)c2ccccc2OC(C)=O)cc1` , can you help?
Reply: 0.00109
